Form field: Log AC50 (M) (one value per entry).
- Tested on: HepG2
- Study conditions: human, hepg2 cells, 48 h
Write the value in M as a bare number.

{"Molecule": "COc1cnc(-c2ccccn2)nc1Oc1ccc(C(C)(C)C)cc1", "Log AC50 (M)": -4.4143}
{"Molecule": "Cc1ccc(NC(=O)C2CCN(c3cc(C(F)(F)F)ncn3)CC2)cc1", "Log AC50 (M)": -4.4643}
{"Molecule": "CCNc1nc(NC(C)(C)C)nc(N2CCCC2)n1", "Log AC50 (M)": -4.3643}
{"Molecule": "Cc1ccc([S+](=O)([O-])NC[C@H]2C[C@@H]3CC[N@]2C[C@@H]3CN2CCc3ccccc32)cc1", "Log AC50 (M)": -4.2528}

Query CC(C)c1nc(-c2ccc(OC3CCN(C(=O)CCc4nc5ccccc5[nH]4)C3)cc2)no1 (centres unmarked) yields Log AC50 (M) of -4.5643

Query "CCOc1ccccc1NC(=O)Nc1ccc2nc(N3CCN(C)CC3)cc(C)c2c1" yields Log AC50 (M) of -4.3643

Query "CCN(CC)CCCNC(=O)c1ccc2c(c1)N(Cc1c(F)cccc1Cl)C(=O)c1ccccc1S2" yields Log AC50 (M) of -4.4143

Query "CCCCN(CC)CCCNC(=O)c1ccc2c(c1)N(Cc1ccc(C)cc1)C(=O)c1ccccc1S2" yields Log AC50 (M) of -4.3643

* * *

- Tested on: Plasmodium falciparum Dd2 asexual blood stage parasites
- Method: microbe, parasite or virus in culture
- Set-up: species or system Plasmodium falciparum Dd2 in human erythrocytes; single determination (one 11-point concentration-response curve)
- Study conditions: Plasmodium falciparum, DD2, Erythrocyte, 72 h; read-out: AC50
Observable: log10(AC50) (log10 of the value in µM)
Would you kindly interpret these values as log10 of AC50 expressed in µM?

{"Molecule": "Cc1nc2c(=O)n(C)c(=O)nc-2n(C)n1", "log10(AC50)": -0.37}

Query "CCOC(=O)c1[nH]c(Cc2[nH]c(C(=O)OCC)c(C)c2CCC(=O)OC)c(CCC(=O)OC)c1C" yields log10(AC50) of 0.73

Query "COc1ccc([C@@]2(C(C)C)ON(c3ccccc3C(F)(F)F)C2=O)cc1" yields log10(AC50) of 0.63

Query "Cc1noc2c(NC3CCN(C)CC3)cc(-c3cccc(C(F)(F)F)c3)nc12" yields log10(AC50) of 1.14

* * *

Form field: AC50 (one value per entry).
- System: Plasmodium falciparum Dd2 asexual blood stage parasites
- Method: microbe, parasite or virus in culture
- Parameters: species or system Plasmodium falciparum Dd2 in human erythrocytes; single determination (one 11-point concentration-response curve)
- Study conditions: Plasmodium falciparum, DD2, Erythrocyte, 72 h; read-out: AC50
Write the value in µM as a bare number.

Would you please look over these solved cases?
{"Compound": "COc1ccc(-c2cc(-c3ccc(N4CCOCC4)nc3)cn3cncc23)cc1 [NCGC00412184-01]", "AC50 [µM]": 7.69}
{"Compound": "c1ccc(CCNc2nc(-c3ccccn3)nc3ccccc23)cc1 [MLS000769840-01]", "AC50 [µM]": 4.73}
{"Compound": "Cc1ccc(NC(=O)CC[S+](=O)([O-])c2cc(Br)cc3c2N(C(=O)C2CC2)CC3)cc1 [NCGC00107230-01]", "AC50 [µM]": 2.37}
{"Compound": "CC1=C[C@@H](CNC(C)C)[C@H](C(C)C)C[C@H]1Cc1nnc(-c2ccc(C)cc2)o1 [NCGC00394176-01]", "AC50 [µM]": 13.7}
{"Compound": "COc1ccccc1CN1CCC(CNC(=O)c2cnn(-c3cccc(Cl)c3)c2C2CCN(C(=O)OC(C)(C)C)CC2)CC1 [NCGC00126858-01]", "AC50 [µM]": 7.5}

Query COc1ccccc1CNCC(O)(c1ccc(Cl)cc1)c1ccc(Cl)cc1 [MLS000325719-01] yields AC50 of 1.5

Query O=C(C[C@@H]1NCCC[C@H]1O)Cn1cnc2cc(Br)c(Cl)cc2c1=O [NCGC00181132-01] yields AC50 of 2.37

Query CC(C)Oc1ccc(CCc2nnc(S)n2Cc2ccccc2)cc1 [MLS000582839-01] yields AC50 of 5.31

Query COc1ccc2cc1Nc1ccc(cc1)C[C@H](NCc1ccc(C)o1)C(=O)N(C)[C@@H](C(=O)NCc1ccccc1)C2 [NCGC00410280-01] yields AC50 of 5.31

Query CCCCN(CCCC)CC(O)Cn1cc(/C=C/C(=O)c2ccccc2)c2ccccc21 (centres unmarked) [NCGC00114887-01] yields AC50 of 1.68

Reference for the values: paper PMC7822874
